Target: recombinant human VAP-1 (Homo sapiens, UniProt Q16853)
Construct: purchased R&D systems
Sequence (Q16853 whole entry): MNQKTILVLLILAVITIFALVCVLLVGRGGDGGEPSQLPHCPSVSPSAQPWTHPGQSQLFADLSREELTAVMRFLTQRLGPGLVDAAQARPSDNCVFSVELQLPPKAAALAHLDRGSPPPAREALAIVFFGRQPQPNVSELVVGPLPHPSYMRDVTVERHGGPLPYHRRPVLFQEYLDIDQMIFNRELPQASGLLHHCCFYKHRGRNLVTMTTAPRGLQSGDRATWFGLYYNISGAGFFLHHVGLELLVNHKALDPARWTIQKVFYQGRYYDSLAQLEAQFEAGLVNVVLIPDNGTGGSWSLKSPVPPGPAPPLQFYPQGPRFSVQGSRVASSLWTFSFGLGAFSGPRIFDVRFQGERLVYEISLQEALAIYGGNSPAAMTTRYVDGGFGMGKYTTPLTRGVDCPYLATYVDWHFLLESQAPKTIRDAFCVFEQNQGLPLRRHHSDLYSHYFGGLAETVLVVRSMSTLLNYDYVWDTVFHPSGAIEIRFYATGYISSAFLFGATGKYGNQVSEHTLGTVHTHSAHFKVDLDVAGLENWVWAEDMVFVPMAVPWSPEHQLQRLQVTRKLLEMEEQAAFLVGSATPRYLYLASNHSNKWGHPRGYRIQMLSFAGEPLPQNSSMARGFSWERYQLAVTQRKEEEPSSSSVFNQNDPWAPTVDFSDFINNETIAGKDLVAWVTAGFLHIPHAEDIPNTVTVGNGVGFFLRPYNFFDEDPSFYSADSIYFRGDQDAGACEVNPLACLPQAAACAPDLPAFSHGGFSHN
Test: Activity evaluation on recombinant human VAP-1 (Amplex Red/HRP-coupled hydrogen peroxide assay, benzylamine substrate)
Type: biochemical
Details: recombinant human VAP-1, benzylamine substrate; read-out: Inhibitory Activity (IC50, nM) human VAP-1
Where a name gives a salt, the structure may show the parent alone.
readout-label: IC50 (nM)

> print(dat)
                                   compound                                    system  obs.value
1  NCC(Cn1ncn(Cc2cc(-c3cc(F)c4[nH]c(=O)ccc4c3)cs2)c1=O)=C(F)F [Example 189, Trifluoroacetate]  recombinant human VAP-1 (Homo sapiens, UniProt Q16853)        0.5
2  Cc1cc(C#Cc2cnc3c(c2)NCCO3)cnc1-n1cnn(CC(CN)=C(F)F)c1=O [Example 244, ditrifluoroacetate]  recombinant human VAP-1 (Homo sapiens, UniProt Q16853)        0.8
3  Cc1cc(-c2ccc(Cn3cnn(CC(CN)=C(F)F)c3=O)cc2)cc2c1NC(=O)CC2 [Example 269, Trifluoroacetate]  recombinant human VAP-1 (Homo sapiens, UniProt Q16853)          1
4  Cc1cc(-c2cc(F)c(Cn3cnn(CC(CN)=C(F)F)c3=O)s2)cc2c1NC(=O)CC2 [Example 304, Trifluoroacetate]  recombinant human VAP-1 (Homo sapiens, UniProt Q16853)        0.7
5  CCn1cc(-c2cccc(Cn3cnn(CC(CN)=C(F)F)c3=O)c2)cn1 [Example 271, Trifluoroacetate]  recombinant human VAP-1 (Homo sapiens, UniProt Q16853)        2.2
6  CN1C(=O)CCc2cc(-c3cc(F)c(Cn4cnn(CC(CN)=C(F)F)c4=O)s3)ccc21 [Example 301, trifluoroacetate]  recombinant human VAP-1 (Homo sapiens, UniProt Q16853)        0.5
7  Cc1cc(-c2ccc(N3CCNCC3)nc2)cnc1-n1cnn(CC(CN)=C(F)F)c1=O [Example 220, Ditrifluoroacetate]  recombinant human VAP-1 (Homo sapiens, UniProt Q16853)        1.1
